Molecular target: human recombinant BACE2 (Homo sapiens (Human), UniProt Q9Y5Z0)
Sequence (Q9Y5Z0 63-518): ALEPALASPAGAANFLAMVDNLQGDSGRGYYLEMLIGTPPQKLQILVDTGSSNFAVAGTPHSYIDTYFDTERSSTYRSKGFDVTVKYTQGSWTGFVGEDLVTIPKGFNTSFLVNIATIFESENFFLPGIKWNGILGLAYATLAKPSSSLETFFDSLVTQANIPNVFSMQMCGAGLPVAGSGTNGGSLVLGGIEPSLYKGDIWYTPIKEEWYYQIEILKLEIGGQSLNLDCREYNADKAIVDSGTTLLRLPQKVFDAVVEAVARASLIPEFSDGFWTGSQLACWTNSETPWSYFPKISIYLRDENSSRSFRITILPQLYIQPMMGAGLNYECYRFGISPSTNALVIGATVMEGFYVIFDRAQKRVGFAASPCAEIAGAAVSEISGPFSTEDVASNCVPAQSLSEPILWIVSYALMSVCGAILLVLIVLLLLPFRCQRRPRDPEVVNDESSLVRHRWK
Experiment: In vitro enzymatic BACE2 FRET assay
Details: read-out: BACE2 Enzyme IC50
Rule: IC50 below 100 nM gives label 1. Equal to or above 100 nM gives label 0.

The following compounds have reported results that may help.
SMILES INPUT: CC1(C)C(N)=N[C@](C)(c2cc(/C=C(\F)c3cnc(OCC(F)(F)F)cn3)ccc2F)CS1(=O)=O
CLASS LABEL: label 0
--
SMILES INPUT: Cc1cc(C#N)cnc1/C(F)=C/c1ccc(F)c([C@]2(C)CS(=O)(=O)N(C)C(N)=N2)c1
CLASS LABEL: label 1
--
SMILES INPUT: CN1C(N)=N[C@](C)(c2cc(/C=C(\F)c3cnc(OCc4cscn4)cn3)cc(F)c2F)CS1(=O)=O
CLASS LABEL: label 1
--
SMILES INPUT: CN1C(N)=N[C@](C)(c2cc(/C=C(\F)c3cnc(OCc4ncco4)cn3)ccc2F)CS1(=O)=O
CLASS LABEL: label 1
--
SMILES INPUT: CN1C(N)=N[C@](C)(c2cc(/C=C(\F)C3CCOCC3)cc(F)c2F)CS1(=O)=O
CLASS LABEL: label 0

Enquiry: Given the entry C[C@]1(c2cc(/C=C(\F)c3cnc(OCC4CC4)cn3)ccc2F)N=C(N)[C@@]2(CF)CC[C@@H]1S2(=O)=O , would its reported IC50 be below 100 nM?
Return: label 0

###

List of IC50 tested on Cathepsin D (CatD) (Homo sapiens (Human), UniProt P07339).
Sequence (P07339 65-412, species assumed): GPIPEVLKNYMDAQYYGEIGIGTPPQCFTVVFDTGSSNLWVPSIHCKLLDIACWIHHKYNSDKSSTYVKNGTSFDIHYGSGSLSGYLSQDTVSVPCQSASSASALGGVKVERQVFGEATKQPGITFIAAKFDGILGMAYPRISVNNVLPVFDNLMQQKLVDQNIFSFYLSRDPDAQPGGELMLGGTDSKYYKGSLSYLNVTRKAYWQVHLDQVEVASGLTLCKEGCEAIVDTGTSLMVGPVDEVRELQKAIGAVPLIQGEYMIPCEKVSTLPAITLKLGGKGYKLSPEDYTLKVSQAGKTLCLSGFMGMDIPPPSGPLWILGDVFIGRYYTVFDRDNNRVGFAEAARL

SMILES INPUT: COC[C@H](C)Oc1cnc(/C(F)=C/c2ccc(F)c([C@@]3(C)N=C(N)[C@@]4(CF)CC[C@@H]3S4(=O)=O)c2)cn1
IC50: > 400 µM

SMILES INPUT: C[C@]1(c2cc(/C=C(\F)c3cnc(OCC(F)(F)C(F)F)cn3)ccc2F)N=C(N)[C@@]2(CF)CC[C@@H]1S2(=O)=O
IC50: > 400 µM

Attention now shifts to the item below.
Enquiry: Given the compound CCOc1cnc(/C(F)=C/c2ccc(F)c([C@@]3(C)N=C(N)[C@@]4(CF)CC[C@@H]3S4(=O)=O)c2)cn1 , what is its reported IC50?
Return: > 400 µM

###

Molecular target: Cathepsin D (CatD) (Homo sapiens (Human), UniProt P07339)
# note: exactly 60 µM is not below, so it is FALSE; use TRUE for IC50 strictly under it

Solved cases below.
COMPOUND: CN1C(N)=N[C@](C)(c2cc(/C=C(\F)c3cc4cc(Cl)ccc4cn3)ccc2F)CS1(=O)=O
CLASS LABEL: FALSE
//
COMPOUND: C#CCOc1cnc(/C(F)=C/c2cnc(F)c([C@]3(C)CS(=O)(=O)C(C)(C)C(N)=N3)c2)cn1
CLASS LABEL: FALSE
//
COMPOUND: CC1(C)C(N)=N[C@](C)(c2cc(/C=C(\F)c3ccc(F)cn3)ccc2F)CS1(=O)=O
CLASS LABEL: FALSE
//
COMPOUND: Cc1nnc(COc2cnc(/C(F)=C/c3cc(F)c(F)c([C@]4(C)CS(=O)(=O)N(C)C(N)=N4)c3)cn2)o1
CLASS LABEL: TRUE
//
COMPOUND: C#CCOc1cnc(/C(F)=C/c2ccc(F)c([C@]3(CF)CS(=O)(=O)C(C)(C)C(N)=N3)c2)cn1
CLASS LABEL: FALSE

Enquiry: Quick check: does CCC#C[C@@H](C)Oc1cnc(/C(F)=C/c2ccc(F)c([C@]3(C)CS(=O)(=O)C(C)(C)C(N)=N3)c2)cn1 (single isomer, unassigned) have IC50 under 60 µM?
Return: TRUE

Enquiry: IC50 under 60 µM? Item: CC#CCOc1cnc(/C(F)=C/c2ccc(F)c([C@]3(C)CS(=O)(=O)N(C)C(N)=N3)c2)cn1
Return: TRUE

Enquiry: Just wondering, is IC50 of Cc1cc(C#N)cnc1/C(F)=C/c1cc(F)c(F)c([C@]2(C)CS(=O)(=O)N(C)C(N)=N2)c1 below 60 µM?
Return: TRUE

Enquiry: Below 60 µM on IC50? Entry CN1C(N)=N[C@](C)(c2cc(/C=C(\F)c3ccc(Cl)cn3)ccc2F)CS1(=O)=O
Return: FALSE

###

Biological target: human recombinant BACE2 (Homo sapiens (Human), UniProt Q9Y5Z0)
Assay: In vitro enzymatic BACE2 FRET assay
Details: read-out: BACE2 Enzyme IC50
pIC50: −log10 of the molar value.
# cutoff 7 applies to pIC50; >= gives 1.0, < gives 0.0

MOLECULE: CC1(C)C(N)=N[C@](C)(c2cc(/C=C(\F)c3cnc(C#N)cn3)ccc2F)CS1(=O)=O [Example 170]
CLASS LABEL: 1.0
--
MOLECULE: C[C@]1(c2cc(/C=C(\F)c3ccc(Br)cn3)ccc2F)N=C(N)C2(CF)CC[C@@H]1S2(=O)=O (stereo in doubt) [Example 101]
CLASS LABEL: 1.0
--
MOLECULE: C[C@@H](CO)Oc1cnc(/C(F)=C/c2ccc(F)c([C@]3(C)CS(=O)(=O)C(C)(C)C(N)=N3)c2)cn1 [Example 218]
CLASS LABEL: 0.0

Now look at this entry.
Enquiry: Can Cc1nc(COc2cnc(/C(F)=C/c3cc(F)c(F)c([C@]4(C)CS(=O)(=O)N(C)C(N)=N4)c3)cn2)no1 [Example 229] be said to have pIC50 at or above 7?
Return: 0.0

###

Molecular target: BACE1 (Homo sapiens (Human))
Assay: In vitro enzymatic BACE1 FRET assay
Format: biochemical
Conditions: read-out: BACE1 Enzyme IC50
Sequence (P56817 46-501): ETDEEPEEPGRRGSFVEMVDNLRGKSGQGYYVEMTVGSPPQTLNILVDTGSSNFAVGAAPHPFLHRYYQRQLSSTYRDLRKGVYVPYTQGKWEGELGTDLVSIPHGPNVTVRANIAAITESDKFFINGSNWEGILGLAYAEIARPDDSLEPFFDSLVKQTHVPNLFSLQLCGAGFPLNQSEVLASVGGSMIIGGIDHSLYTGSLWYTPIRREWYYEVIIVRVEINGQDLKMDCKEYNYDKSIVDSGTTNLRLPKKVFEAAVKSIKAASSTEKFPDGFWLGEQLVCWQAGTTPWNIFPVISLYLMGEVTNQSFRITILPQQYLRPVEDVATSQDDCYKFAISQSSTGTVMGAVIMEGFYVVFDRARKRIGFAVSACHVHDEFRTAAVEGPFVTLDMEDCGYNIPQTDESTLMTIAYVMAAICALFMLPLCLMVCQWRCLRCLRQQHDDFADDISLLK
pIC50: −log10 of the molar value.
pIC50 vs 8: at or above is 1 (yes), below is 0 (no).

Take a look at these entries with their results.
COMPOUND: CC1(C)C(N)=N[C@](C)(c2cc(/C=C(\F)c3cnc(OCC(F)(F)C(F)F)cn3)ccc2F)CS1(=O)=O [Example 141]
CLASS LABEL: 0 (no)

COMPOUND: CC1(C)C(N)=N[C@](C)(c2cc(/C=C(\F)c3cnc(OCc4ccccc4)cn3)cnc2F)CS1(=O)=O [Example 209]
CLASS LABEL: 0 (no)

COMPOUND: CC1(C)C(N)=N[C@](C)(c2cc(/C=C(\F)c3cnc(OCC4CCC4)cn3)ccc2F)CS1(=O)=O [Example 145]
CLASS LABEL: 0 (no)

COMPOUND: C#CCOc1cnc(/C(F)=C/c2ccc(F)c([C@]3(C)CS(=O)(=O)C4(CCC4)C(N)=N3)c2)cn1 [Example 149]
CLASS LABEL: 1 (yes)

Enquiry: Is pIC50 for CC#C[C@H](C)Oc1cnc(/C(F)=C/c2ccc(F)c([C@]3(C)CS(=O)(=O)C(C)(C)C(N)=N3)c2)cn1 (single isomer, unassigned) [Example 208] at or above 8?
Return: 1 (yes)

Enquiry: Does Cc1nnc(COc2cnc(/C(F)=C/c3ccc(F)c([C@@]4(C)N=C(N)[C@@]5(CF)CC[C@@H]4S5(=O)=O)c3)cn2)o1 [Example 119] have a reported pIC50 of at least 8?
Return: 0 (no)

Enquiry: Threshold query (pIC50 >= 8) on C[C@]1(c2cc(/C=C(\F)c3cnc(OCC4COC4)cn3)ccc2F)N=C(N)[C@@]2(CF)CC[C@@H]1S2(=O)=O [Example 126]
Return: 0 (no)

Enquiry: Determine whether measured pIC50 meets or exceeds 8 for CC(C)(C#N)COc1cnc(/C(F)=C/c2ccc(F)c([C@]3(C)CS(=O)(=O)C(C)(C)C(N)=N3)c2)cn1 [Example 153]
Return: 0 (no)

Enquiry: Hi, just wondering whether C=CCOc1cnc(/C(F)=C/c2cc(F)c(F)c([C@]3(C)CS(=O)(=O)N(C)C(N)=N3)c2)cn1 [Example 227] shows pIC50 of 8 or higher.
Return: 0 (no)

###

Molecular target: UniProtKB P56817
Experiment: In vitro BACE1 cell-based assay (Aβ40 in conditioned medium of cells stably expressing APP, HTRF)
Conditions: Aβ40 in conditioned media after 24 h incubation
Sequence (P56817 46-501, species assumed): as the sequence (P56817 46-501) above
TEST READOUT: IC50 (nM)
Reply with just the number (in nM).

Examples from the recorded data:
COMPOUND: CCC#C[C@@H](C)Oc1cnc(/C(F)=C/c2ccc(F)c([C@]3(C)CS(=O)(=O)C(C)(C)C(N)=N3)c2)cn1 (single isomer, unassigned)
RESULT UNIT: nM
IC50: 5360
--
COMPOUND: CC#CCOc1cnc(/C(F)=C/c2ccc(F)c([C@@]3(C)N=C(N)N(C)S(=O)(=O)C3(C)C)c2)cn1
RESULT UNIT: nM
IC50: 5
--
COMPOUND: CC1(C)C(N)=N[C@](C)(c2cc(/C=C(\F)c3cnc(OCC(F)(F)C(F)F)cn3)ccc2F)CS1(=O)=O
RESULT UNIT: nM
IC50: 229
--
COMPOUND: C#CCOc1cnc(/C(F)=C/c2ccc(F)c([C@]3(C)CS(=O)(=O)C4(CCC4)C(N)=N3)c2)cn1
RESULT UNIT: nM
IC50: 3

Would you kindly look at the next entry?
Enquiry: What does the data say about its IC50? Entry: CN1C(N)=N[C@](C)(c2cc(/C=C(\F)c3cnc(Cl)cn3)ccc2F)C2(CC2)S1(=O)=O
Return: 198
